# protein stability index values compiled below
B1: TOR1AIP2 (parent)
chain: SPGHSSAGQEGEDTLRRRLLAPEA

Variants of: B1
Assay: protein stability index of a GFP-peptide fusion (GPS, HEK-293T) (PSI 1-6); higher = more stable;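 note: lentivirally expressed fusions sorted by FACS into six bins by GFP to DsRed ratio, PSI derived from sequencing read proportions per bin multiplied by bin number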
Conditions: c terminus: a fixed tail appended
Note: the reply should be a number with no unit written.

variant_annotation=P2T numeric_result=3.23
variant_annotation=R17C numeric_result=4.51
variant_annotation=S5P numeric_result=4.14
variant_annotation=G11Y numeric_result=3.39
variant_annotation=T14I numeric_result=4.42
variant_annotation=T14Y numeric_result=4.2
variant_annotation=L15F numeric_result=4.3
variant_annotation=S5K numeric_result=3.86

Let me know recorded protein stability index for G8T , thanks.
4.61
